Below is a list of entries, each paired with its recorded IC50 value.
# Tested on: PC-3
# procedure-details: Cytotoxicity against human PC3 cells assessed as growth inhibition after 96 hrs by SRB assay
# Type: functional, cell-based
# details: PC-3, 96 h
Supply the numeric figure in nM, leaving out any unit text.

COc1cc(C(=O)c2nc(-c3ccc(N(C)C)cc3)c[nH]2)cc(OC)c1OC ... 118
COc1cc(C(=O)c2nc(-c3ccccc3)cn2Cc2ccccc2)cc(OC)c1OC ... 72

// next entry
For this molecule ( CCc1ccc(-c2nc(C(=O)c3cc(OC)c(OC)c(OC)c3)c[nH]2)cc1 ), measured IC50 is 13
